- Tested on: psychomotor seizures induced by 6 Hz 44 mA corneal stimulus
- protocol-notes: 6 Hz 44 mA mouse test
- Format: in vivo
- experimental-setup: p.o.; 6 Hz 44 mA; 0.5 and 2 h; default doses 30, 100, 300 mg/kg
measured-property: Mouse P.O. identification 44 mA

molecule	measured-property	measurement
OC[C@H]1O[C@@H](n2cnc3c(NC4CCCC4)ncnc32)[C@H](O)[C@@H]1O [N6-Cyclopentyladenosine, N^6-cyclopentyladenosine]	Mouse P.O. identification 44 mA	+
CC[C@@H](C(N)=O)N1CCCC1=O [Levetiracetam, levetiracetam]	Mouse P.O. identification 44 mA	+
CC(=O)Nc1ccc(O)cc1 [Acetaminophen, acetaminophen]	Mouse P.O. identification 44 mA	−
CCCC(CCC)C(=O)O [Valproic acid, valproic acid]	Mouse P.O. identification 44 mA	−
CCOC(=O)Nc1ccc(NCc2ccc(F)cc2)cc1N [Retigabine, retigabine]	Mouse P.O. identification 44 mA	+
CN1C(=O)CC(=O)N(c2ccccc2)c2cc(Cl)ccc21 [Clobazam, clobazam]	Mouse P.O. identification 44 mA	+
Cc1ccsc1C(=CCCN1CCC[C@@H](C(=O)O)C1)c1sccc1C [Tiagabine, tiagabine]	Mouse P.O. identification 44 mA	+
NC(=O)N1c2ccccc2C=Cc2ccccc21 [Carbamazepine, carbamazepine]	Mouse P.O. identification 44 mA	+

Kindly review the next molecule as well.
Asked: Suppose we examine the molecule Clc1cccc(N2CCNCC2)c1 [m-CPP, meta-chlorophenylpiperazine] ; what Mouse P.O. identification 44 mA value has been reported?
Given back: −

###

- System: MES-induced seizures
- protocol-notes: Maximal electroshock
- Assay type: in vivo
- experimental-setup: i.p.; 0.5 and 2 h; default doses 30, 100, 300 mg/kg
measured-property: Mouse I.P identification MES

mol-smiles	measured-property	measurement
CC[C@@H](C(N)=O)N1CCCC1=O	Mouse I.P identification MES	−
OC[C@H]1O[C@@H](n2cnc3c(NC4CCCC4)ncnc32)[C@H](O)[C@@H]1O	Mouse I.P identification MES	+
Clc1cccc(N2CCNCC2)c1	Mouse I.P identification MES	−
CC(=O)Nc1ccc(O)cc1	Mouse I.P identification MES	−

###

- protocol-notes: in vivo
- experimental-setup: mouse, po
measured-property: TD50

mol-smiles	TD50
CCCC(CCC)C(=O)O	< 300 mg/kg
CCOC(=O)Nc1ccc(NCc2ccc(F)cc2)cc1N	> 500 mg/kg

Moving on to another compound below.
Asked: So what does the record say about TD50 for CC[C@@H](C(N)=O)N1CCCC1=O ?
Given back: > 500 mg/kg

Origin of values: paper PMC7895462
